Reference source: patent US20230250170A1

- experimental-system: T1, pig NPR1 extracellular domain expressed with a C-terminal myc-myc-hexahistidine (pig)
- T1 chain: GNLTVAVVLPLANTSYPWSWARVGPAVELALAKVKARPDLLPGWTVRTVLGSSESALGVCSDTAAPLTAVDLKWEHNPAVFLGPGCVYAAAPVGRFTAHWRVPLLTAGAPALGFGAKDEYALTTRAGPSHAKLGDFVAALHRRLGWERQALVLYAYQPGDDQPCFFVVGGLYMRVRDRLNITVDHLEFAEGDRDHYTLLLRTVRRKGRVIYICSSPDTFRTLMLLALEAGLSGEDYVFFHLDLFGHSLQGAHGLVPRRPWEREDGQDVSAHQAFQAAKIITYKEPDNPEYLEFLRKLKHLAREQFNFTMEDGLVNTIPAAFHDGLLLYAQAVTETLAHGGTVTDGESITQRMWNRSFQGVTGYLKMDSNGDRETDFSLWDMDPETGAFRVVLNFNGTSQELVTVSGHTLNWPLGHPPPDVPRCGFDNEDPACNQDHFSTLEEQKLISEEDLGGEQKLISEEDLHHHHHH
- method: SPR Biacore 8K, mAb captured via anti-hFc, 25 C
measurement-name: 40 nM Ag Bound (RU)
Expressed in RU, but write only the number.

See these solved cases before continuing.
binder	val
H4H22034 (antibody, human IgG4 S228P, kappa, V domains shown, also called H4H22034N; mAb22034) VH: EVQLLESGGDLVQPGGSLRLSCAASGFTFSDYAMIWVRQTPGKGLEWVSGISGGGGSTDYADSVKGRFTTSRDNVKNAMYLQMNSLRTEDTAVYYCAREDQLPSYHNYYGMDVWGQGTTVTVSS VL: DIQMTQSPSSVSASVGDRVTITCRASQGINNYLAWFQQKPGKAPKSLIYGASSLQSGVPSKFSGSRSGIDFTLTISSLQPEDFATYYCQQYNSYPYTFGQGTKLEIKR	0
REGN7544 (antibody, human IgG4 S228P, kappa, V domains shown, also called mAb38072) VH: EVQLVESGGGLVQPGGSLRLSCAASGFSFVSYVMGWVRQAPGKGLEWVSSISGSLTNTYYADPVKGRFTISRDNSKNTLYLQMNSLRAEDTAAYYCVTYDILTGHLFDYWGQGTLVTVSS VL: AIQMTQSPSSLSASVGDRVTITCRSSQGIRNDFGWYQQKPGKAPKLLIYAASRLQSGVPSRFSGSGSGTDFTLTINNLQPEDFATYYCLQDYTYPFTFGPGTKVDIKR	2

Note: attention shifts to another entry.
query: Could you share which 40 nM Ag Bound (RU) value was measured for REGN7548 (antibody, human IgG4 S228P, kappa, V domains shown, also called mAb38090) VH: QVQLVQSGAEVKKPGASVKVSCKASGYTFTSYYIHWVRQAPGQGLEWMGIISPSDGYTSYAQNFQGRVTMTRDTSTNTVYMDLSSLRSEDTAMFYCARNDPLTTVALDYWGQGTLVTVSS VL: AIQMTQSPSSLSASVGDRVTITCRASQGIRYDLGWFQQKPGKAPKLLIHAASSLQSGVPSRFSGSGSGTDFTLTISSLQPEDFATYYCLQDYNYPFTFGQGTKLEIKR ?
result: 11
